From: paper PMC3698094

Listing of entries alongside the reported IC50.
- System Tested: AC5 (recombinant) (Canis lupus, UniProt P30803)
- Construct: recombinant membranous AC5 expressed by baculovirus in Sf9 cells; crude Sf9 membranes
- Sequence (P30803 whole entry): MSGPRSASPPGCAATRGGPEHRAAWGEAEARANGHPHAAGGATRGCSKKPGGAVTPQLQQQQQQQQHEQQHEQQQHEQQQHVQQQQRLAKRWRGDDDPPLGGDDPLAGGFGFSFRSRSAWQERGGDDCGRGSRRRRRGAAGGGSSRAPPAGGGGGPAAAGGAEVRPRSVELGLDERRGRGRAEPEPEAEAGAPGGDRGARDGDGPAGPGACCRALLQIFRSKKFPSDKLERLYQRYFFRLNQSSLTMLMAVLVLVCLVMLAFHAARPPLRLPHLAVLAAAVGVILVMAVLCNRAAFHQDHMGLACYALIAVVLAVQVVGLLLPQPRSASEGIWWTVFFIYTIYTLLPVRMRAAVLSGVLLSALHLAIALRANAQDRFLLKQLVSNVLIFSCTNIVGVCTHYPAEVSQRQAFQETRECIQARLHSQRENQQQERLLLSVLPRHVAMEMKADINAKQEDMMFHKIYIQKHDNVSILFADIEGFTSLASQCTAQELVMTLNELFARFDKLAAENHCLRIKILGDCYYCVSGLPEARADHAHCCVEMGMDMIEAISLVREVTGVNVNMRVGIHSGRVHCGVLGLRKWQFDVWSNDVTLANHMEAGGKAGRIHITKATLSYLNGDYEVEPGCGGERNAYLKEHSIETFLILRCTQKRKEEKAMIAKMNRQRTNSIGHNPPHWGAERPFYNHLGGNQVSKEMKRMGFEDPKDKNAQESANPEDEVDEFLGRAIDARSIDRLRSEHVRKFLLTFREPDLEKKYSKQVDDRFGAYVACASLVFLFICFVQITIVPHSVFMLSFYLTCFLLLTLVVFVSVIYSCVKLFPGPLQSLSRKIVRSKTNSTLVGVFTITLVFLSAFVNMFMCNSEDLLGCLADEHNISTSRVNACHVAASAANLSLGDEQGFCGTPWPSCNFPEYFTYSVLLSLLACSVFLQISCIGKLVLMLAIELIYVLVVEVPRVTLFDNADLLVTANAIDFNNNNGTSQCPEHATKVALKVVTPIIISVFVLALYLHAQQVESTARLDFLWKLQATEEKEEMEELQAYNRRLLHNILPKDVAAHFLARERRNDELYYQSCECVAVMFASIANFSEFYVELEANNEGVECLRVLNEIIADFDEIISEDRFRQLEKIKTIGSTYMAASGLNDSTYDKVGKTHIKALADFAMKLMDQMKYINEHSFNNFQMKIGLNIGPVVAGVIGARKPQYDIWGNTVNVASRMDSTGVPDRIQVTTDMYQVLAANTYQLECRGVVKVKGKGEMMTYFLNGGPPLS
- Run Description: radiochemical AC activity assay, […]cAMP from [α-32P]ATP, Sf9 membranes
- Condition Description: read-out: Recombinant ACs / AC5
Field: numeric (µM). Do not append units.

Completed entries (count: 2):
Input line: Requested field: IC50. Item: Nc1ncnc2c1ncn2[C@@H]1O[C@H](CO)[C@@H](O)[C@@H]1O [vidarabine, 9-β-D-arabinosyladenine]
Output line: 20

Input line: Requested field: IC50. Item: Nc1ncnc2c1ncn2C1CCCO1 (stereo not drawn) [SQ22,536]
Output line: 9.5

Kindly consider the entry below.
Input line: Requested field: IC50. Item: Nc1ncc2c(n1)CC(c1ccco1)CC2=O (stereo not drawn) [NKY80]
Output line: 81.1

###

- System Tested: AC2 (recombinant) (Rattus norvegicus, UniProt P26769)
- Construct: recombinant membranous AC2 expressed by baculovirus in Sf9 cells; crude Sf9 membranes
- Sequence (P26769 whole entry): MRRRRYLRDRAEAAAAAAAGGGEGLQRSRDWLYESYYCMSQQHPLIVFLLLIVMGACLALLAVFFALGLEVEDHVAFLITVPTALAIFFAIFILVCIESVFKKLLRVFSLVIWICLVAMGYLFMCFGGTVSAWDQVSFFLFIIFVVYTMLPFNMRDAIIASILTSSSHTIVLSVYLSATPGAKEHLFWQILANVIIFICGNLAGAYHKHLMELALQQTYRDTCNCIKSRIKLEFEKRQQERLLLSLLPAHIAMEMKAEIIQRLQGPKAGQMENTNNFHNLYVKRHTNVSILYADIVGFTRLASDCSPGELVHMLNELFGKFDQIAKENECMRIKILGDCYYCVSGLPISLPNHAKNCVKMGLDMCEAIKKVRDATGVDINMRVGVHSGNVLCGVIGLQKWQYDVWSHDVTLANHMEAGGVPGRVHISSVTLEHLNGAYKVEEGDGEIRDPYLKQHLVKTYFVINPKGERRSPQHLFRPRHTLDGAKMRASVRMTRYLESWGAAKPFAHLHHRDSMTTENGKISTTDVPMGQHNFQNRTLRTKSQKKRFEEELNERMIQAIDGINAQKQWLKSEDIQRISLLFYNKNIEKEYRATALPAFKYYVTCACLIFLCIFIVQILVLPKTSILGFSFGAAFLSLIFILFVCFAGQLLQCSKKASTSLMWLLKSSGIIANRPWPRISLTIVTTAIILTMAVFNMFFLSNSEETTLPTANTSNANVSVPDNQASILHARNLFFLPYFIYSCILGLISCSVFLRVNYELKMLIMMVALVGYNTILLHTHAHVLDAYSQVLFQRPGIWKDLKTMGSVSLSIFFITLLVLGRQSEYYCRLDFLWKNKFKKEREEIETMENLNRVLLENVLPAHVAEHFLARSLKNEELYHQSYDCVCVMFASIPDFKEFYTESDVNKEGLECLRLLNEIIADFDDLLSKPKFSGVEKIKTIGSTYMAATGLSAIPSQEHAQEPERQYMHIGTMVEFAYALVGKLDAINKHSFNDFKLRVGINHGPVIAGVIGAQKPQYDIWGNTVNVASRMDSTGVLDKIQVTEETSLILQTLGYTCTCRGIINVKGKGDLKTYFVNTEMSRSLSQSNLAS
- Run Description: radiochemical AC activity assay, […]cAMP from [α-32P]ATP, Sf9 membranes
- Condition Description: read-out: RecombinantACs / AC2
Assay Readout: pEC50
Please report pEC50 as the negative decimal logarithm of the molar concentration, giving only the number.

Input line: Requested field: pEC50. Item: C=C[C@@]1(C)CC(=O)[C@]2(O)[C@@]3(C)[C@@H](O)CCC(C)(C)[C@@H]3[C@H](O)[C@H](OC(C)=O)[C@@]2(C)O1
Output line: 4.87

###

- System Tested: AC1 (recombinant) (Bos taurus)
- Construct: recombinant membranous AC1 expressed by baculovirus in Sf9 cells; crude Sf9 membranes
- Sequence (P19754 whole entry): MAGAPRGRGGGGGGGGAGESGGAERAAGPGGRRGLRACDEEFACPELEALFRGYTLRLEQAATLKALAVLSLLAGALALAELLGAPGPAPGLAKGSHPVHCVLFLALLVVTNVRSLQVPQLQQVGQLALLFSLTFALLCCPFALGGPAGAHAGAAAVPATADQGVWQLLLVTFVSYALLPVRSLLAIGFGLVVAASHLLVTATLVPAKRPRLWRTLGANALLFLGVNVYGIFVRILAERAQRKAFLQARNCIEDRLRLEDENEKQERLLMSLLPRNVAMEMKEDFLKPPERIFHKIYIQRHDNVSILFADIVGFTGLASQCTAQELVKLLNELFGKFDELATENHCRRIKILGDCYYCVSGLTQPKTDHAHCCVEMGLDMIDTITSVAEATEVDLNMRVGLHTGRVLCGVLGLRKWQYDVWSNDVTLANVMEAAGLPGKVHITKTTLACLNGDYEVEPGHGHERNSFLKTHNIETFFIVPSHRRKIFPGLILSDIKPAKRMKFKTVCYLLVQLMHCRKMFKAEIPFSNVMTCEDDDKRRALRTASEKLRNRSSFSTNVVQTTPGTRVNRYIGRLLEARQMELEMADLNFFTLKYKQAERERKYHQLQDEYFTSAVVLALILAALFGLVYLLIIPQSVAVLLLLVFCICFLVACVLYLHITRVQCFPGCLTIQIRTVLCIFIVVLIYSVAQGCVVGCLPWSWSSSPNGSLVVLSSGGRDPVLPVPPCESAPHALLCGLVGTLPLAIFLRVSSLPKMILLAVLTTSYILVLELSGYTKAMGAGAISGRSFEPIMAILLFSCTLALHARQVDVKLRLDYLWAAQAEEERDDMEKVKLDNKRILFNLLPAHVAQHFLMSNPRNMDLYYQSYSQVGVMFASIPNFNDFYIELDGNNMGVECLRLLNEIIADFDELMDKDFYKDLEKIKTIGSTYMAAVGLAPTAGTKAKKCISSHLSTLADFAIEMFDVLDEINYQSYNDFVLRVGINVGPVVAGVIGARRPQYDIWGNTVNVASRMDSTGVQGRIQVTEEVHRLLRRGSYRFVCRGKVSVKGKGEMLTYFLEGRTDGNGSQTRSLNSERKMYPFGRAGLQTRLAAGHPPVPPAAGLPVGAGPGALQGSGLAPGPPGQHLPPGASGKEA
- Run Description: radiochemical AC activity assay, […]cAMP from [α-32P]ATP, Sf9 membranes
- Condition Description: read-out: Recombinant ACs / AC1
Listing of entries alongside the reported IC50.
Field: numeric (µM). Do not append units.

Completed entries (count: 2):
Input line: Requested field: IC50. Item: Nc1ncnc2c1ncn2C1CCCO1 (stereo not drawn)
Output line: 110

Input line: Requested field: IC50. Item: Nc1ncc2c(n1)CC(c1ccco1)CC2=O (stereo not drawn)
Output line: 330

Further cases:
Input line: Requested field: IC50. Item: Nc1ncnc2c1ncn2[C@@H]1O[C@H](CO)[C@@H](O)[C@@H]1O
Output line: 138
